As shown below, each of these compounds has a reported log10(Cmax) value.
# assay method text: Plasma pharmacokinetics after single oral administration of CAP
# run parameters: human, plasma, po, 2 g
Scale: log10; quantity: Cmax; unit before log: ng/mL

Some solved entries appear below for comparison.
[
  {
    "compound": "C[C@H]1[C@H](C)CC[C@]2(C(=O)O)CC[C@]3(C)C(=CC[C@@H]4[C@@]5(C)C[C@@H](O)[C@H](O)[C@@](C)(CO)[C@@H]5CC[C@]43C)[C@H]12",
    "readout number": 2.09
  },
  {
    "compound": "COc1cc(CCC(=O)O)ccc1O [DHFA, dihydroferulic acid]",
    "readout number": 1.04
  },
  {
    "compound": "C[C@H]1[C@H](C)CC[C@]2(C(=O)O)CC[C@]3(C)C(=CC[C@@H]4[C@@]5(C)C[C@@H](O)[C@H](O)[C@@](C)(CO)[C@@H]5[C@H](O)C[C@]43C)[C@H]12",
    "readout number": 1.58
  },
  {
    "compound": "O=C(O)CCc1ccc(O)c(O)c1 [DHCA, dihydrocaffeic acid]",
    "readout number": 0.00
  },
  {
    "compound": "COc1ccc(/C=C/C(=O)O)cc1O",
    "readout number": -0.05
  }
]

Continue with the next compound.
Note to self: log10(Cmax) recorded for O=C(O)CCc1cccc(O)c1 [HPP, 3-(3-hydroxyphenyl)propionic acid] was 1.51
